These measurements were taken from patent US12391685B2.

Target: SpCas9 (Streptococcus pyogenes serotype M1)
Sequence (Q99ZW2 whole entry): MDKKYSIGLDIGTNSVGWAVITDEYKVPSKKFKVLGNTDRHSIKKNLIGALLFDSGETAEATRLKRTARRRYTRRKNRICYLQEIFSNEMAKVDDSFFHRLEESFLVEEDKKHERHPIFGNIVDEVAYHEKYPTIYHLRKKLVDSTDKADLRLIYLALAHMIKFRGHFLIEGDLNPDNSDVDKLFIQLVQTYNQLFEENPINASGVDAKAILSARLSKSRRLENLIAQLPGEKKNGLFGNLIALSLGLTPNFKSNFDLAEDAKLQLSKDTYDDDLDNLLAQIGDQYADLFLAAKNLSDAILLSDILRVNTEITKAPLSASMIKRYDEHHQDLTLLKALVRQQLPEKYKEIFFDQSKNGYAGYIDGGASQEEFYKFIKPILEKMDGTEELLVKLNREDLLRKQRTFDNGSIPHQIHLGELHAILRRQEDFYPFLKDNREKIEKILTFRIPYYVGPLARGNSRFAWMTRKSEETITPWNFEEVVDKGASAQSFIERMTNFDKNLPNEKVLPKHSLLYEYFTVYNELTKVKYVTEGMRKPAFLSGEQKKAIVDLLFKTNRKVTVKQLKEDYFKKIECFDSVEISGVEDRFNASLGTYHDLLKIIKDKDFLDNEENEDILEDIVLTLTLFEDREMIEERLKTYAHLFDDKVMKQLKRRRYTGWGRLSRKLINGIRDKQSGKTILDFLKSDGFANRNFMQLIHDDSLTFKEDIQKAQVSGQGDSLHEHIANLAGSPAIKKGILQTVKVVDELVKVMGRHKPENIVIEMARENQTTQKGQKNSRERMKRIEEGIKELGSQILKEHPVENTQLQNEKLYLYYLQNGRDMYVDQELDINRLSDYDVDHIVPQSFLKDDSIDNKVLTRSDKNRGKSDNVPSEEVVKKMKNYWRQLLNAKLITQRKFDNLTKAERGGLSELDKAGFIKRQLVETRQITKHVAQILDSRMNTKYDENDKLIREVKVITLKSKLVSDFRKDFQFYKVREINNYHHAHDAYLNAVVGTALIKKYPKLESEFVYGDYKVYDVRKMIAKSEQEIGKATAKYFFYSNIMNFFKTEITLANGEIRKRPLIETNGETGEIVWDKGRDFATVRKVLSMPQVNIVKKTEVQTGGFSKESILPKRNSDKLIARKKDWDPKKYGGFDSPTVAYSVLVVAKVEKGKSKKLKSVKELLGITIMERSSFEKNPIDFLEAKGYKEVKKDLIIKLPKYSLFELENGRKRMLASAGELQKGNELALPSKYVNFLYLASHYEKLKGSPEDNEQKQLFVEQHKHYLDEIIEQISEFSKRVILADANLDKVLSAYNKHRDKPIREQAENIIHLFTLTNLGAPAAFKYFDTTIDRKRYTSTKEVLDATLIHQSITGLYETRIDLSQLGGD
Assay: eGFP-disruption assay in U2OS.eGFP.PEST cells
Format: cell-based, S. pyogenes
Parameters: host or cells: U2OS.eGFP.PEST
Settings: screen of structural analogs of BRD7087; 15 μM compound, 24 h, U2OS.eGFP.PEST cells
READOUT_NAME: Inhibition activity Rep 2
Lab note: record the figure alone, no unit after it.

Would you please look over these solved cases?
# MOLECULE, SUBJECT_OF_TEST, Inhibition activity Rep 2
rows = [
    ("CN1c2ccc(C#Cc3ccc(F)cc3)cc2[C@@H]2[C@@H](CCN2C(=O)CN2CCOCC2)[C@H]1CO [BRD-K82266131]", "SpCas9 (Streptococcus pyogenes serotype M1)", 62.1),
    ("Cc1ccc(S(=O)(=O)N2CC[C@@H]3[C@H](CO)Nc4ccc(-c5cccc(C(=O)N(C)C)c5)cc4[C@@H]32)cc1 [BRD-K51395794]", "SpCas9 (Streptococcus pyogenes serotype M1)", 61.3),
    ("COc1ccccc1CN1CC[C@@H]2[C@H]1c1cc(C#Cc3ccccc3)ccc1N[C@@H]2CO [BRD-K18260949]", "SpCas9 (Streptococcus pyogenes serotype M1)", 49.1),
]

Which value of Inhibition activity Rep 2 has been reported for O=C(C1CCCCC1)N1CC[C@@H]2[C@H](CO)Nc3ccc(Br)cc3[C@@H]21 [BRD-K60987574] in the records?
62.2

Next up: COCC(=O)N1CC[C@@H]2[C@H](CO)Nc3ccc(C#Cc4cccc(F)c4)cc3[C@@H]21 [BRD-K09759494]
50.7

Next up: COc1ccccc1-c1ccc2c(c1)[C@H]1[C@H](CCN1C(=O)CN1CCOCC1)[C@H](CO)N2C [BRD-K22244182]
43.4

Next up: COc1ccc(-c2ccc3c(c2)[C@H]2[C@H](CCN2C(=O)Cc2ccncc2)[C@H](CO)N3)cc1 [BRD-K17925790]
50.8

Next up: O=S(=O)(c1cccc(F)c1)N1CC[C@@H]2[C@H]1c1cc(C#Cc3ccccc3F)ccc1N[C@@H]2CO [BRD-K14474387]
66.4

Next up: COc1ccc(S(=O)(=O)N2CC[C@@H]3[C@H](CO)N(C)c4ccc(-c5ccccc5F)cc4[C@@H]32)cc1 [BRD-K69451415]
50.6

Next up: COc1ccccc1C#Cc1ccc2c(c1)[C@H]1[C@H](CCN1C(=O)CN1CCOCC1)[C@H](CO)N2 [BRD-K26627503]
66.3

Next up: COc1ccccc1NC(=O)N1CC[C@@H]2[C@H]1c1cc(C#Cc3cccc(F)c3)ccc1N(C)[C@@H]2CO [BRD-K77165899]
59.9

Next up: COc1cccc(S(=O)(=O)N2CC[C@@H]3[C@H]2c2cc(C#Cc4cccnc4)ccc2N(C)[C@H]3CO)c1 [BRD-K04388421]
53.3

Next up: O=C(c1cccc(F)c1)N1CC[C@@H]2[C@H](CO)Nc3ccc(-c4ccccc4)cc3[C@@H]21 [BRD-K94204229]
66.6

Next up: CN1c2ccc(-c3ccc(C#N)cc3)cc2[C@@H]2[C@@H](CCN2S(=O)(=O)c2cccc(F)c2)[C@H]1CO [BRD-K40448176]
51.2

###

Experiment: physchem
Conditions: PBS, aqueous buffer
READOUT_NAME: solubility at 24 h (µM)
Record the value in µM, omitting the unit from your answer.

Which value of solubility at 24 h has been reported for `OC[C@H]1Nc2ccc(-c3cccc(F)c3)cc2[C@H]2[C@@H]1CCN2Cc1ccncc1` in the records?
75
